- measurement_target: Protein Kinase A catalytic subunit (PKA) (Bos taurus)
- Construct: catalytic subunit (from bovine heart, Merck)
- protocol_description: fluorescence polarization competition with BODIPY FL ATP-γ-S
measurement_kind: IC50

What measured IC50 goes with CC1CNCCN1S(=O)(=O)c1cccc2cnccc12 (stereo not shown) ? ~1130 µM

Where do these numbers come from? They come from paper PMC7191558.
